# tested_on: T1, HSP70 (human HSP70; the antigen of the binning, humanization and variant binding assays) (human, UniProt P0DMV8 1-641, limits assumed)
# T1 construct: also called hu HSP70
# assay_protocol: BLI, antibody on sensor
binders and their reported Kd
quantity_measured: Kd (nM)

binder="chimeric 77A with a human IgG2 Fc domain (antibody, V domains shown, also called Chimera IgG2; IgG2 Chimera) VH: QIQLVQSGPELKKPGETVKISCKASGYTFTNYGMNWVKQAPGKGLKWMGWINTYTGEPTYADDFKGRFAFSLETSATTAYLQINNLKNEDTATYFCARYDHAMDYWGQGTSVTVSS VL: DIVMSQSPSSLAVSAGEKVTMSCKSSQSLLNSGTRKNYLAWYQQKPGQSPKLLIYWTSTRESGVPDRFTGSGSGTDFTLTINSVQAEDLAVYYCKQSYTLYTFGGGTKLEIK" quantity_measured=Kd result=1.52
binder="77A antibody (clone 77A, murine anti-HSP70 monoclonal antibody) (antibody, V domains shown, murine hybridoma antibody; its isotype control is IgG2B; also called mAb 77A) VH: QIQLVQSGPELKKPGETVKISCKASGYTFTNYGMNWVKQAPGKGLKWMGWINTYTGEPTYADDFKGRFAFSLETSATTAYLQINNLKNEDTATYFCARYDHAMDYWGQGTSVTVSS VL: DIVMSQSPSSLAVSAGEKVTMSCKSSQSLLNSGTRKNYLAWYQQKPGQSPKLLIYWTSTRESGVPDRFTGSGSGTDFTLTINSVQAEDLAVYYCKQSYTLYTFGGGTKLEIK" quantity_measured=Kd result=1.2
binder="chimeric 77A with a human IgG4 Fc domain (antibody, V domains shown, also called Chimera IgG4; IgG4 Chimera) VH: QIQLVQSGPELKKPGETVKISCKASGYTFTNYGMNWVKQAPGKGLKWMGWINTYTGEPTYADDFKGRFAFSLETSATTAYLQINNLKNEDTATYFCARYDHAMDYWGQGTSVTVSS VL: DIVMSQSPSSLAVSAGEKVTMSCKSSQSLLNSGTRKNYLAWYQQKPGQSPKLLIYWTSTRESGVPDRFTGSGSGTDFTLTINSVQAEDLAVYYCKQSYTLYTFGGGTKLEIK" quantity_measured=Kd result=1.81
binder="chimeric 77A with a human IgG1 Fc domain (antibody, V domains shown, also called Chimera IgG1; IgG1 Chimera) VH: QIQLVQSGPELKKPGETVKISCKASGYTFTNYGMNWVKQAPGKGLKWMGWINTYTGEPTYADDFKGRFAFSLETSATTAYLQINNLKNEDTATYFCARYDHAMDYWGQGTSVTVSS VL: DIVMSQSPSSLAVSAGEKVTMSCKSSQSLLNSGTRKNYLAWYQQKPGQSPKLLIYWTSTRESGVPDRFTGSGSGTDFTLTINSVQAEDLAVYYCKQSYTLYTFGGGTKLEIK" quantity_measured=Kd result=1.39
